# reported % remain (HLM, 2 h); entries follow
Assay: Human liver microsome (HLM) assay
Assay type: in vitro ADME
Conditions: human liver microsomes, 5 μM test compound

# compound, unitInfo, % remain (HLM, 2 h)
data = [
    ("CC(=O)Nc1cccc(N(C)c2ccc3c(/C=C/c4ccccc4)n[nH]c3c2)c1 [Example 12(a)]", "%", 59),
    ("CCCNC(=O)c1ccccc1Sc1ccc2c(/C=C/c3ccccn3)n[nH]c2c1 [Example 35(a)]", "%", 33),
    ("O=C(NNc1ccccn1)c1ccccc1Sc1ccc2c(/C=C/c3ccccn3)n[nH]c2c1 [Example 35(n)]", "%", 47),
    ("Cc1cnc(C(=O)Nc2cccc(N(C)c3ccc4c(/C=C/c5ccccc5)n[nH]c4c3)c2)s1 [Example 12(d)]", "%", 51),
    ("C=CCONC(=O)c1ccccc1Sc1ccc2c(/C=C/c3ccccn3)n[nH]c2c1 [Example 35(j)]", "%", 5),
    ("CS(=O)(=O)c1ccc(C(=O)Nc2cccc(Oc3ccc4c(/C=C/c5ccccn5)n[nH]c4c3)c2)s1 [Example 31(c)]", "%", 87),
    ("O=C(c1cccc(NC(=O)c2cccc3[nH]ccc23)c1)c1ccc2c(/C=C/c3ccccc3)n[nH]c2c1 [Example 19(f)]", "%", 98),
]

---

Molecular target: CDK4/Cyclin D3 complex (Homo sapiens, UniProt P11802)
Sequence (P11802 whole entry, the tested form may be a part): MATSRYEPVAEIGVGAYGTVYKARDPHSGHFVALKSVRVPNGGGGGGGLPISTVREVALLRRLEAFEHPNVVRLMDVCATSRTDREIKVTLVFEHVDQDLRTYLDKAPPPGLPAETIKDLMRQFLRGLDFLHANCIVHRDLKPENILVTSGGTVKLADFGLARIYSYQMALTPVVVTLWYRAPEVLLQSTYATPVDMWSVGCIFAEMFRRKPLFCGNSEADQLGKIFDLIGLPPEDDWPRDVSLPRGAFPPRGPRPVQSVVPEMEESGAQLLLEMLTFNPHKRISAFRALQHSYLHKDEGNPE
Sequence (P30281 whole entry partner, the tested form may be a part): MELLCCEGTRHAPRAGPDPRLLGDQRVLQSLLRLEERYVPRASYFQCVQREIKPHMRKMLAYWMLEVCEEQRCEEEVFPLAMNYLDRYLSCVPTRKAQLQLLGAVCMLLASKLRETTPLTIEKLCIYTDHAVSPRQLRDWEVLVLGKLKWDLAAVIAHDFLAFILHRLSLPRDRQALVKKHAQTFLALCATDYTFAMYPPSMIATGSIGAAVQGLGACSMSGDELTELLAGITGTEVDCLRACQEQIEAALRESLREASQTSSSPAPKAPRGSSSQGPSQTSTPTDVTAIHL
Assay: CDK4/Cyclin D assay ([32P]ATP, Rb fragment)
measuredQuantity: Ki (nM)

# molecule, endpointValue
measured = [
    ("COc1cc(-c2ccc3c(-c4nc5ccccc5[nH]4)n[nH]c3c2)c(CO)cc1O", 19),
    ("Clc1ccc(/C=C/c2n[nH]c3cc(-c4ccncc4)ccc23)cc1", 2000),
    ("COc1c(O)cccc1-c1ccc2c(-c3nc4ccccc4[nH]3)n[nH]c2c1", 92),
    ("COc1cc(O)ccc1-c1ccc2c(-c3nc4cnccc4[nH]3)n[nH]c2c1", 21),
    ("COc1cc(O)ccc1-c1ccc2c(-c3nc4c(SCCO)cccc4[nH]3)n[nH]c2c1", 1000),
    ("COc1cc(O)ccc1-c1ccc2c(-c3nc4ccc(S(N)(=O)=O)cc4[nH]3)n[nH]c2c1", 20),
    ("CCc1cc(O)ccc1-c1ccc2c(-c3nc4ccccc4[nH]3)n[nH]c2c1 [Example 24(e)]", 4.4),
    ("COc1cc(O)ccc1-c1ccc2c(-c3nc4cc(N(C)C)ccc4[nH]3)n[nH]c2c1", 24),
    ("Oc1ccc(-c2ccc3c(-c4nc5ccccc5[nH]4)n[nH]c3c2)c(O)c1", 7.4),
    ("C(=C\\c1n[nH]c2cc(-c3ccncc3)ccc12)/c1ccccc1", 780),
    ("Oc1cccc(-c2ccc3c(-c4nc5ccccc5[nH]4)n[nH]c3c2)c1", 200),
    ("COc1cc(O)ccc1-c1ccc2c(-c3nc4ccc(N5CCN(C)CC5)cc4[nH]3)n[nH]c2c1", 15.5),
    ("COc1cc(-c2ccc3c(-c4ccccc4)n[nH]c3c2)ccc1O", 8000),
    ("Fc1cccc(/C=C/c2n[nH]c3cc(-c4ccncc4)ccc23)c1F", 5000),
    ("Cc1cccc(/C=C/c2n[nH]c3cc(-c4ccncc4)ccc23)c1", 3900),
    ("COc1cc(O)ccc1-c1ccc2c(-c3nc4ccccc4[nH]3)n[nH]c2c1", 17),
    ("C(=C\\c1n[nH]c2cc(-c3ccncc3)ccc12)/c1ccc2c(c1)OCO2 [Example 29(r)]", 1100),
    ("CNC(=O)c1ccc2[nH]c(-c3n[nH]c4cc(-c5ccc(O)cc5OC)ccc34)nc2c1", 21),
    ("Oc1ccc(-c2ccc3c(/C=C/c4ccccc4)n[nH]c3c2)cc1OCc1ccccc1", 1300),
    ("COc1cc(-c2ccc3c(-c4nc5ccccc5[nH]4)n[nH]c3c2)c(C)cc1O", 5.1),
    ("C=CCOc1cc(-c2ccc3c(/C=C/c4ccc(OC)c(OC)c4)n[nH]c3c2)ccc1O", 670),
]

---

Molecular target: unphosphorylated VEGF-R2Δ50 (FLVK) (Homo sapiens, UniProt P35968, DEL940-989/E990V)
Sequence (P35968 with tags, fused parts or gaps DEL940-989/E990V limits assumed): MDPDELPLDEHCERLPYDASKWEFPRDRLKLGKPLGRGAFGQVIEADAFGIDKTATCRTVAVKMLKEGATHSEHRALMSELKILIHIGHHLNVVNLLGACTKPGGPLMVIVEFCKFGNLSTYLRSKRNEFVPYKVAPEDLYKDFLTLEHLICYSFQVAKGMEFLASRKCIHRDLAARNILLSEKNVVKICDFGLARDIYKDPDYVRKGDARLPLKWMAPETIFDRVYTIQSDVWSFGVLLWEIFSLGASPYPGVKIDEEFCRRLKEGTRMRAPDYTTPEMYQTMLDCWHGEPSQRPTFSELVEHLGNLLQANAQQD
Assay: VEGF-R2 coupled spectrophotometric assay, unphosphorylated VEGF-R2Δ50 (FLVK)
Conditions: FLVK Ki, Table 1
pKi: −log10 of the molar value.
Listing: pKi of selected molecules

# molecule, pKi
data = [
    ("O=C(Nc1cccc(Oc2ccc3c(/C=C/c4ccccc4)n[nH]c3c2)c1)c1cccc2[nH]ccc12 [Example 30(d)]", 9.43),
    ("O=C(c1cccc(NC(=O)c2ccccn2)c1)c1ccc2c(/C=C/c3ccccn3)n[nH]c2c1 [Example 41(aa)]", 9.96),
    ("O=C(NCC(F)(F)F)c1ccccc1Sc1ccc2c(/C=C/c3ccccn3)n[nH]c2c1 [Example 33(f)]", 8.10),
]

---

Assay: Determination of inhibitor concentration in mouse plasma after intraperitoneal and oral dosing
Assay type: in vivo
Settings: female, PO, 50 mg/kg, vehicle PEG400:H2O pH 2.3 30:70, read-out: Cmin (7 hr conc.)
measuredQuantity: concentration at 7 h (ng/mL)

# molecule, endpointValue
data = [
    ("O=C(NC1CC1)c1ccccc1Sc1ccc2c(/C=C/c3ccccn3)n[nH]c2c1 [Example 33(e)]", 12),
    ("O=C(Nc1cccc(Oc2ccc3c(/C=C/c4ccccn4)n[nH]c3c2)c1)c1ccccc1 [Example 31(a)]", 834),
    ("C[C@@H]1C[C@H]1C(=O)Nc1cccc(C(=O)c2ccc3c(/C=C/c4ccccn4)n[nH]c3c2)c1 (racemic) [Example 41(h)]", 7),
    ("CCCNC(=O)c1ccccc1Sc1ccc2c(/C=C/c3ccccn3)n[nH]c2c1 [Example 35(a)]", 10),
]

---

Biological target: unphosphorylated VEGF-R2Δ50 (FLVK) (Homo sapiens, UniProt P35968, DEL940-989/E990V)
Assay: VEGF-R2 coupled spectrophotometric assay, unphosphorylated VEGF-R2Δ50 (FLVK)
Settings: FLVK Ki, Table 1
measuredQuantity: Ki (nM)

# smilesRepr, unitInfo, cmp, endpointValue
rows = [
    ("CCONC(=O)c1ccccc1Sc1ccc2c(/C=C/c3ccccn3)n[nH]c2c1", "nM", "=", 0.6),
    ("O=C(Nc1cccc(Sc2ccc3c(/C=C/c4ccccc4)n[nH]c3c2)c1)c1ccccc1", "nM", "=", 1.6),
    ("Cn1nc(C(C)(C)C)cc1C(=O)Nc1cccc(C(=O)c2ccc3c(/C=C/c4ccccn4)n[nH]c3c2)c1", "nM", "=", 0.2),
    ("CS(=O)(=O)c1ccc(C(=O)Nc2cccc(Oc3ccc4c(/C=C/c5ccccn5)n[nH]c4c3)c2)s1", "nM", "<", 0.1),
    ("Nc1cccc(Oc2ccc3c(/C=C/c4ccccc4)n[nH]c3c2)c1", "nM", "=", 18),
    ("O=C(c1cccc(NC(=O)c2ccc(Cl)s2)c1)c1ccc2c(/C=C/c3ccccn3)n[nH]c2c1", "nM", "=", 0.05),
    ("C=C(c1cccc(NC(=O)OCc2ccccc2)c1)c1ccc2c(/C=C/c3ccccc3)n[nH]c2c1", "nM", "=", 0.64),
]

---

Biological target: phosphorylated VEGF-R2Δ50 (FLVK-P) (Homo sapiens, UniProt P35968, DEL940-989/E990V)
Sequence (P35968 with tags, fused parts or gaps DEL940-989/E990V limits assumed): as above
Assay: VEGF-R2 coupled spectrophotometric assay, phosphorylated VEGF-R2Δ50 (FLVK-P)
Returns: string. Value is 1 if measured Ki is below 20 nM, and -1 if it is greater than or equal to it.

# molecule, targetUnderTest, labelClass
measured = [
    ("C=C(c1cccc(NC(C)=O)c1)c1ccc2c(/C=C/c3ccccc3)n[nH]c2c1", "phosphorylated VEGF-R2Δ50 (FLVK-P) (Homo sapiens, UniProt P35968, DEL940-989/E990V)", 1),
    ("CC(=O)Nc1cccc(N(C)c2ccc3c(/C=C/c4ccccc4)n[nH]c3c2)c1", "phosphorylated VEGF-R2Δ50 (FLVK-P) (Homo sapiens, UniProt P35968, DEL940-989/E990V)", 1),
    ("CC(=O)N1CCC(C(=O)Nc2cccc(Oc3ccc4c(/C=C/c5ccc(Cl)cc5)n[nH]c4c3)c2)CC1", "phosphorylated VEGF-R2Δ50 (FLVK-P) (Homo sapiens, UniProt P35968, DEL940-989/E990V)", 1),
    ("COc1cc(-c2ccc3c(/C=C/c4ccc(OC)c(OC)c4)n[nH]c3c2)ccc1O", "phosphorylated VEGF-R2Δ50 (FLVK-P) (Homo sapiens, UniProt P35968, DEL940-989/E990V)", 1),
    ("CN(C)c1cccc(C(=O)Nc2cccc(N(C)c3ccc4c(/C=C/c5ccc6c(c5)OCO6)n[nH]c4c3)c2)c1", "phosphorylated VEGF-R2Δ50 (FLVK-P) (Homo sapiens, UniProt P35968, DEL940-989/E990V)", 1),
    ("CN(c1cccc(NC(=O)c2ccc(O)c(C(C)(C)C)c2)c1)c1ccc2c(/C=C/c3ccc4c(c3)OCO4)n[nH]c2c1", "phosphorylated VEGF-R2Δ50 (FLVK-P) (Homo sapiens, UniProt P35968, DEL940-989/E990V)", 1),
    ("Oc1cccc(Oc2ccc3c(/C=C/c4ccccc4)n[nH]c3c2)c1", "phosphorylated VEGF-R2Δ50 (FLVK-P) (Homo sapiens, UniProt P35968, DEL940-989/E990V)", 1),
    ("O=C(Nc1cccc(Sc2ccc3c(/C=C/c4ccccc4)n[nH]c3c2)c1)c1ccccc1", "phosphorylated VEGF-R2Δ50 (FLVK-P) (Homo sapiens, UniProt P35968, DEL940-989/E990V)", 1),
    ("COc1cc(-c2ccc3c(-c4ccccc4)n[nH]c3c2)ccc1O", "phosphorylated VEGF-R2Δ50 (FLVK-P) (Homo sapiens, UniProt P35968, DEL940-989/E990V)", -1),
    ("C(=C\\c1n[nH]c2cc(Oc3ccccc3)ccc12)/c1ccccc1 [Example 8(a), 3-(E-Styryl)-6-phenoxy-1H-indazole]", "phosphorylated VEGF-R2Δ50 (FLVK-P) (Homo sapiens, UniProt P35968, DEL940-989/E990V)", -1),
    ("COc1cc(O)ccc1-c1ccc2c(-c3nc4ccccc4[nH]3)n[nH]c2c1", "phosphorylated VEGF-R2Δ50 (FLVK-P) (Homo sapiens, UniProt P35968, DEL940-989/E990V)", -1),
    ("Nc1cccc(C(=O)c2ccc3c(/C=C/c4ccccn4)n[nH]c3c2)c1", "phosphorylated VEGF-R2Δ50 (FLVK-P) (Homo sapiens, UniProt P35968, DEL940-989/E990V)", 1),
    ("Oc1ccc(-c2ccc3c(-c4nc5ccccc5[nH]4)n[nH]c3c2)c(Oc2ccccc2)c1", "phosphorylated VEGF-R2Δ50 (FLVK-P) (Homo sapiens, UniProt P35968, DEL940-989/E990V)", -1),
    ("C(=C\\c1n[nH]c2cc(Sc3ccccc3)ccc12)/c1ccccc1", "phosphorylated VEGF-R2Δ50 (FLVK-P) (Homo sapiens, UniProt P35968, DEL940-989/E990V)", 1),
    ("Nc1cccc(Nc2ccc3c(/C=C/c4ccccc4)n[nH]c3c2)c1", "phosphorylated VEGF-R2Δ50 (FLVK-P) (Homo sapiens, UniProt P35968, DEL940-989/E990V)", 1),
    ("C=CCOc1cc(-c2ccc3c(/C=C/c4ccc(OC)c(OC)c4)n[nH]c3c2)ccc1O", "phosphorylated VEGF-R2Δ50 (FLVK-P) (Homo sapiens, UniProt P35968, DEL940-989/E990V)", 1),
    ("O=C(c1cccc(NC(=O)c2ccno2)c1)c1ccc2c(/C=C/c3ccccc3)n[nH]c2c1", "phosphorylated VEGF-R2Δ50 (FLVK-P) (Homo sapiens, UniProt P35968, DEL940-989/E990V)", 1),
    ("Cc1cccc(C(=O)Nc2cccc(Oc3ccc4c(-c5cc6ccccc6[nH]5)n[nH]c4c3)c2)c1", "phosphorylated VEGF-R2Δ50 (FLVK-P) (Homo sapiens, UniProt P35968, DEL940-989/E990V)", 1),
    ("O=C(Nc1cccc(C(=O)c2ccc3c(/C=C/c4ccccc4)n[nH]c3c2)c1)c1ccccc1", "phosphorylated VEGF-R2Δ50 (FLVK-P) (Homo sapiens, UniProt P35968, DEL940-989/E990V)", 1),
    ("CC(=O)Nc1cccc(C(=O)c2ccc3c(/C=C/c4ccccc4)n[nH]c3c2)c1", "phosphorylated VEGF-R2Δ50 (FLVK-P) (Homo sapiens, UniProt P35968, DEL940-989/E990V)", 1),
    ("CC(=O)Nc1cccc(Oc2ccc3c(/C=C/c4ccccc4)n[nH]c3c2)c1", "phosphorylated VEGF-R2Δ50 (FLVK-P) (Homo sapiens, UniProt P35968, DEL940-989/E990V)", 1),
    ("CN(c1cccc(N)c1)c1ccc2c(/C=C/c3ccc4c(c3)OCO4)n[nH]c2c1", "phosphorylated VEGF-R2Δ50 (FLVK-P) (Homo sapiens, UniProt P35968, DEL940-989/E990V)", 1),
]
